# Tested on: ERBB4;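 also: KINOMEscan scanMAX binding as percent activity remaining versus control; lower means stronger binding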
# conditions-used: Compound Concentration (nM):1000

>  <molecule>
COc1cc(/C=N/Nc2ncnc3[nH]ncc23)ccc1O [GW578748X]

>  <Percent Control (%)>
100

$$$$
>  <molecule>
Nc1ncnc2occ(-c3ccc(NC(=O)Nc4cc(C(F)(F)F)ccc4F)cc3)c12 [GW770249X]

>  <Percent Control (%)>
100

$$$$
>  <molecule>
NS(=O)(=O)c1ccc(N/N=C2\C(=O)Nc3ccc(-c4cnco4)cc32)cc1 [GW276655]

>  <Percent Control (%)>
66

$$$$
>  <molecule>
Cl.c1ccc(Cc2nc3ccc(Nc4ncnc5ccccc45)cc3[nH]2)cc1 [GR269666A]

>  <Percent Control (%)>
1.8

$$$$
>  <molecule>
CN(C)c1cc2c(Nc3ccc4c(cnn4Cc4ccccc4)c3)ncnc2cn1 [GW282974X]

>  <Percent Control (%)>
24

$$$$
